Exercise: for every item that follows, state its recorded CC50 at 72 h.
Assay: Cytotoxicity against human HepG2 cells incubated for 72 hrs by MTT assay
Type: toxicity, cell-based

Suppose we examine the compound C=CCc1cc(CN2CCC3(CC2)CN(C)CCN3C)ccc1O ; what CC50 at 72 h value has been reported?
> 100 µM

Suppose we examine the compound Oc1c(CN2CCCCC2)cc(CN2CCCCC2)nc1-c1ccccc1 ; what CC50 at 72 h value has been reported?
> 100 µM

Suppose we examine the compound c1ccc2c(CCNC3CC4CCC3C4)c[nH]c2c1 (stereo not drawn) ; what CC50 at 72 h value has been reported?
> 100 µM
